- Protocol Description: Serum concentration of DHEA after intravaginal application
- Format: in vivo
- Run Parameters: female, rat, 0.66 mg
- Text: The insertion into the vagina of one suppository began on day 5 of the study and was continued once daily until day 18 of the study, for a total of 14 days of treatment. The suppository was gently placed in the vaginal opening and then delicately pushed about 2-3 mm inside the vagina with the help of a small, smooth glass stick, disinfected in 70% alcohol and dried between each animal.
Readout Type: AUC (ng·h/mL)

>  <Molecule>
C[C@]12CC[C@H](O)CC1=CC[C@@H]1[C@@H]2CC[C@]2(C)C(=O)CC[C@@H]12 [DHEA, dehydroepiandrosterone]

>  <Output Unit>
ng·h/mL

>  <Measured Value>
50

$$$$
